The measured values listed here are drawn from patent US20250346668A1.

Experimental Target: T1, human CD3e/g antigen (ACRO, catalog number CDG-H52W5) (human, UniProt P07766 23-126; P09693 23-116)
T1 construct: Bought reagent used as the Biacore analyte; also called hCD3e/g
Assay Details: SPR (Biacore 8K), antibody captured via anti-human Fc

{"Binder": "hAb001-29 (antibody, V domains shown, Humanized; constant regions not specified) VH: QVQLVQSGAEVKKPGASVKVSCKASGYSFTNYYMHWVKQAPGQRLEWIGWTYPGNNNIKYNEKFKGRATITADTSASTAYMELSSLRSEDTAVYYCARDGYGYYFFDYWGQGTLVTVSS VL: DIVMTQSPDSLAVSLGERATINCKSSQSLLNNRTRKNYLAWYQQKPGQPPKLLIYWASTRESGVPDRFSGSGSGTDFTLTISSLQAEDVAVYYCKQSYTLRTFGGGTKLEIK", "koff / s⁻¹": 0.00722}
{"Binder": "hAb007-30 (antibody, V domains shown, Humanized; constant regions not specified) VH: QVQLVQSGAEVKKPGASVKVSCKASGSTFTDNYIHWVKQAPGQRLEWIGWIYPGSVNIKYNEKFKDRATITADTSATTAYMELSSLRSEDTAVYYCARDISRYYFDYWGQGTTVTVSS VL: DIVMTQSPDSLAVSLGERATINCKSSQSLLNSRTRKNYLAWYQQKPGQPPKLLIYWASTRESGVPDRFTGSGSGTDFTLTISSLQAEDVAVYYCKQSFILRTFGGGTKLEIK", "koff / s⁻¹": 0.00316}
{"Binder": "hAb008-19 (antibody, V domains shown, Humanized; constant regions not specified) VH: QVQLVQSGAEVKKPGASVKVSCKASGYTFTDYTVNWVRQAPGQRLEWMGYINPFNSYTKYNQKFKDRVTITRDTSASTAYMELSSLRSEDTAVYYCARSVSTYWGQGTTVTVSS VL: DVVMTQSPLSLPVTLGQPASISCKSSQSLLDSDGKTYLNWLLQRPGQSPRRLIQLVSKLNSGVPDRFSGSGSGTDFTLKISRVEAEDVGVFYCWQGTHFPRTFGGGTKLEIK", "koff / s⁻¹": 0.00573}
{"Binder": "hAb007-29 (antibody, V domains shown, Humanized; constant regions not specified) VH: QVQLVQSGAEVKKPGASVKVSCKASGSTFTDNYIHWVKQAPGQRLEWIGWIYPGSVNIKYNEKFKDRATITADTSATTAYMELSSLRSEDTAVYYCARDISRYYFDYWGQGTTVTVSS VL: DIVMTQSPDSLAVSLGERATINCKSSQSLLNSRTRKNYLAWYQQKPGQPPKLLIYWASTRESGVPDRFSGSGSGTDFTLTISSLQAEDVAVYYCKQSFILRTFGGGTKLEIK", "koff / s⁻¹": 0.00415}
{"Binder": "hAb008-30 (antibody, V domains shown, Humanized; constant regions not specified) VH: QVQLVQSGAEVKKPGASVKVSCKASGYTFTDYTVNWVKQAPGQRLEWIGYINPFNSYTKYNQKFKDRATITADTSASTAYMELSSLRSEDTAVYFCANSVSTYWGQGTTVTVSS VL: DVVMTQSPLSLPVTLGQPASISCKSSQSLLDSDGKTYLNWLQQRPGQSPRRLIQLVSKLNSGVPDRFSGSGSGTDFTLKISRVEAEDVGVFYCWQGTHFPRTFGGGTKLEIK", "koff / s⁻¹": 0.00522}
{"Binder": "hAb007-23 (antibody, V domains shown, Humanized; constant regions not specified) VH: QVQLVQSGAEVKKPGASVKVSCKASGSTFTDNYIHWVRQAPGQRLEWIGWIYPGSVNIKYNEKFKDRVTITADTSASTAYMELSSLRSEDTAVYYCARDISRYYFDYWGQGTTVTVSS VL: DIVMTQSPDSLAVSLGERATMNCKSSQSLLNSRTRKNYLAWYQQKPGQPPKLLIYWASTRESGVPDRFSGSGSGTDFTLTISSLQAEDVAVYYCKQSFILRTFGGGTKLEIK", "koff / s⁻¹": 0.0029}
{"Binder": "hAb001-17 (antibody, V domains shown, Humanized; constant regions not specified) VH: QVQLVQSGAEVKKPGASVKVSCKASGYSFTNYYMHWVRQAPGQRLEWMGWTYPGNNNIKYNEKFKGRVTITRDTSASTAYMELSSLRSEDTAVYYCARDGYGYYFFDYWGQGTLVTVSS VL: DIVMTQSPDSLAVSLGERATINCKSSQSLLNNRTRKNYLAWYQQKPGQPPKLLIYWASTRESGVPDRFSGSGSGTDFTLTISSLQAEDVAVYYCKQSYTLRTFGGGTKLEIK", "koff / s⁻¹": 0.00452}
{"Binder": "hAb007-26 (antibody, V domains shown, Humanized; constant regions not specified) VH: QVQLVQSGAEVKKPGASVKVSCKASGSTFTDNYIHWVRQAPGQRLEWIGWIYPGSVNIKYNEKFKDRATITADTSASTAYMELSSLRSEDTAVYYCARDISRYYFDYWGQGTTVTVSS VL: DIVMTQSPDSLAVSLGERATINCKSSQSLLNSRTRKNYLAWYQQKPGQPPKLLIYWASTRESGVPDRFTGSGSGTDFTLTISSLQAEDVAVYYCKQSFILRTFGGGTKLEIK", "koff / s⁻¹": 0.00565}
{"Binder": "hAb008-29 (antibody, V domains shown, Humanized; constant regions not specified) VH: QVQLVQSGAEVKKPGASVKVSCKASGYTFTDYTVNWVKQAPGQRLEWIGYINPFNSYTKYNQKFKDRATITADTSASTAYMELSSLRSEDTAVYFCANSVSTYWGQGTTVTVSS VL: DVVMTQSPLSLPVTLGQPASISCKSSQSLLDSDGKTYLNWFQQRPGQSPRRLIQLVSKLNSGVPDRFSGSGSGTDFTLKISRVEAEDVGVFYCWQGTHFPRTFGGGTKLEIK", "koff / s⁻¹": 0.00378}
{"Binder": "hAb008-31 (antibody, V domains shown, Humanized; constant regions not specified) VH: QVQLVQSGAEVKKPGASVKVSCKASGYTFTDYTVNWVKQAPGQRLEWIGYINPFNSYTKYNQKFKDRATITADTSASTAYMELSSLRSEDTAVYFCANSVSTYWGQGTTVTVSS VL: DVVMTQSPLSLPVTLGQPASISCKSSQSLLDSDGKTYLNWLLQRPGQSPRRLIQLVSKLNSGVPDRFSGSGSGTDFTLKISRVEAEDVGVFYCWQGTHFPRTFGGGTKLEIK", "koff / s⁻¹": 0.00381}
